Target: LiTryS (Leishmania infantum trypanothione synthetase) (Leishmania infantum)
Sequence (A4I2Z3 1-652): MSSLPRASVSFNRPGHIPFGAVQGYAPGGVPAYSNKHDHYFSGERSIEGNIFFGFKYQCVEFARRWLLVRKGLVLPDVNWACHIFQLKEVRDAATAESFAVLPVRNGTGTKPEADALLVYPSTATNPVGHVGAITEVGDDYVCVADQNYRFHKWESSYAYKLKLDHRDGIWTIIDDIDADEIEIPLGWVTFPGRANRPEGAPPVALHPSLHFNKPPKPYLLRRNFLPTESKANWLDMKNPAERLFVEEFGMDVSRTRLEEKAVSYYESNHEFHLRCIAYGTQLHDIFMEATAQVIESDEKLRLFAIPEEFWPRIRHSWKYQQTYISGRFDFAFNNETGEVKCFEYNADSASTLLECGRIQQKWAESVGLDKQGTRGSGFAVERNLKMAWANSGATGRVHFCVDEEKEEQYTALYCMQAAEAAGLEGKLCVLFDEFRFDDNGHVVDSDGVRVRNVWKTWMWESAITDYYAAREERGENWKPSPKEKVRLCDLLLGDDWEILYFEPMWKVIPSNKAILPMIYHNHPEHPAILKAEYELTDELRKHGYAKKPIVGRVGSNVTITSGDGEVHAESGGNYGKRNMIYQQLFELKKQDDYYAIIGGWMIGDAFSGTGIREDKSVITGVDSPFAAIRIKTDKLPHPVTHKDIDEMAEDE
Assay: biochemical
Type: biochemical
Settings: read-out: % LiTryS inhibition ± 2σn-1
measured.property: inhibition at 30 µM (%)

chemical_string=COc1cc(CNCCCCCCCCNCc2ccc(OCc3ccccc3)c(OC)c2)ccc1OCc1ccccc1 measured_property="inhibition at 30 µM" unit_info=% result=49.6
chemical_string=Brc1ccc(CNCCCCCCCCCCCCNCc2ccc(Br)cc2)cc1 measured_property="inhibition at 30 µM" unit_info=% result=25.9
chemical_string=CC(C)c1ccc(CNCCCCCCCCCCNCc2ccc(C(C)C)cc2)cc1 measured_property="inhibition at 30 µM" unit_info=% result=50
chemical_string=COc1cc(CNCCCCNCc2ccc(OCc3ccccc3)c(OC)c2)ccc1OCc1ccccc1 measured_property="inhibition at 30 µM" unit_info=% result=23.4
chemical_string=CC(C)(C)NC(=O)Nc1nc2nc(N)ncc2cc1-c1ccc2ccccc2c1 measured_property="inhibition at 30 µM" unit_info=% result=32.1
chemical_string=CCNC(=S)Nc1nc2nc(N)ncc2cc1-c1ccc2c(c1)OCO2 measured_property="inhibition at 30 µM" unit_info=% result=13.6
chemical_string=COc1cc(CNCCCCCCNCc2ccc(OCc3ccccc3)c(OC)c2)ccc1OCc1ccccc1 measured_property="inhibition at 30 µM" unit_info=% result=26.3
chemical_string=CC(C)(C)NC(=O)Nc1ncc2cc(-c3ccc4c(c3)OCO4)c(NC(=O)NC(C)(C)C)nc2n1 measured_property="inhibition at 30 µM" unit_info=% result=15.3

====

Molecular target: TbTryS (Trypanosoma brucei trypanothione synthetase) (Trypanosoma brucei brucei)
Assay: biochemical
Items are presented alongside their recorded TbTryS Activity ± 2σn-1 (%).
measured.property: TbTryS Activity ± 2σn-1 (%)

compound=Clc1ccc(CNCCCCCCCCCCCCNCc2ccc(Cl)cc2)cc1 measured_property="TbTryS Activity ± 2σn-1 (%)" result="57.6 ± 1.6; 4 (1.33) %"
compound="COc1ccc(C2C(C(=O)c3ccc4c(c3)OCCO4)=C(O)C(=O)N2c2nc3ccc(Cl)cc3s2)cc1OC (stereo not drawn)" measured_property="TbTryS Activity ± 2σn-1 (%)" result="102.1 ± 0.01; 3%"
compound=COc1cc(CNCCCCCCCCCCNCc2ccc(OCc3ccccc3)c(OC)c2)ccc1OCc1ccccc1 measured_property="TbTryS Activity ± 2σn-1 (%)" result="55.5 ± 1.8. 3 (1.11) %"
compound="Cc1ccc2nc(N3C(=O)C(O)=C(C(=O)c4ccc5c(c4)OCCO5)C3c3ccc(F)cc3)sc2c1 (stereo not drawn)" measured_property="TbTryS Activity ± 2σn-1 (%)" result="110.3 ± 8.7 ; 12%"
compound=[O-][n+]1onc2ccccc21 measured_property="TbTryS Activity ± 2σn-1 (%)" result="90.9 ± 5.9; 4%"
compound=COc1cc(CNCCCCCCCCCCNCc2ccc(O)c(OC)c2)ccc1O measured_property="TbTryS Activity ± 2σn-1 (%)" result="86.0 ± 5.5; 3%"
compound=COc1ccc(CNCCCCCCNCc2ccc(OC)cc2)cc1 measured_property="TbTryS Activity ± 2σn-1 (%)" result="72.8 ± 3.7; 4%"
compound="COc1ccc(C2C(C(=O)c3ccc4c(c3)OCCO4)=C(O)C(=O)N2c2nc3ccc(C)cc3s2)cc1OC (stereo not drawn)" measured_property="TbTryS Activity ± 2σn-1 (%)" result="103.3 ± 3.2; 3%"
compound=Cc1ccc(CNCCCCCCCCCCNCc2ccc(C)cc2)cc1 measured_property="TbTryS Activity ± 2σn-1 (%)" result="61.8 ± 4.8; 3%"
compound=c1ccc(CNCCCCCCCCCCCCNCc2ccccc2)cc1 measured_property="TbTryS Activity ± 2σn-1 (%)" result="74.9 ± 4.1; 4%"
compound=[O-][n+]1onc2cc(F)c(F)cc21 measured_property="TbTryS Activity ± 2σn-1 (%)" result="85.0 ± 1.4; 2%"
compound="COc1ccc2nc(N3C(=O)C(O)=C(C(=O)c4ccc5c(c4)OCCO5)C3c3ccc(O)c(OC)c3)sc2c1 (stereo not drawn)" measured_property="TbTryS Activity ± 2σn-1 (%)" result="108.1 ± 6.5; 3%"
compound=COc1cc(CNCCCCCCCCNCc2ccc(O)c(OC)c2)ccc1O measured_property="TbTryS Activity ± 2σn-1 (%)" result="91.6 ± 3.6; 3%"
compound="c1ccc(COc2ccc(CNCCCNCc3ccc(OCc4ccccc4)cc3)cc2)cc1 [APC1-71B]" measured_property="TbTryS Activity ± 2σn-1 (%)" result="66.0 ± 0.7; 3%"
compound="O=C(C1=C(O)C(=O)N(c2nc3ccc(Cl)cc3s2)C1c1ccc(O)cc1)c1ccc2c(c1)OCCO2 (stereo not drawn)" measured_property="TbTryS Activity ± 2σn-1 (%)" result="106.9 ± 4.7; 3%"
compound=COc1cc(CNCCCNCc2ccc(OCc3ccccc3)c(OC)c2)ccc1OCc1ccccc1 measured_property="TbTryS Activity ± 2σn-1 (%)" result="66.0 ± 2.9; 4%"
compound="COc1cc(C2C(C(=O)c3ccc4c(c3)OCCO4)=C(O)C(=O)N2c2nc3ccc(C)cc3s2)ccc1O (stereo not drawn)" measured_property="TbTryS Activity ± 2σn-1 (%)" result="115.4 ± 4.3; 3%"

====

Some molecules, each annotated with its measured TbTryS Activity ± 2σn-1 (%).
Target: TbTryS (Trypanosoma brucei trypanothione synthetase) (Trypanosoma brucei brucei)
Assay: biochemical
measured.property: TbTryS Activity ± 2σn-1 (%)

molecule="Cc1ccc2nc(N3C(=O)C(O)=C(C(=O)c4ccc5c(c4)OCCO5)C3c3ccccc3)sc2c1 (centres unmarked)" experimental_system="TbTryS (Trypanosoma brucei trypanothione synthetase) (Trypanosoma brucei brucei)" measured_property="TbTryS Activity ± 2σn-1 (%)" result="107.7 ± 6.1; 3%"
molecule="Cc1ccc2nc(N3C(=O)C(O)=C(C(=O)c4ccc5c(c4)OCCO5)C3c3ccc(O)cc3)sc2c1 (centres unmarked)" experimental_system="TbTryS (Trypanosoma brucei trypanothione synthetase) (Trypanosoma brucei brucei)" measured_property="TbTryS Activity ± 2σn-1 (%)" result="107.7 ± 6.4; 4%"
molecule=c1ccc(CNCCCCCCCCNCc2ccccc2)cc1 experimental_system="TbTryS (Trypanosoma brucei trypanothione synthetase) (Trypanosoma brucei brucei)" measured_property="TbTryS Activity ± 2σn-1 (%)" result="78.3 ± 3.6; 4%"
molecule=[O-][n+]1onc2cc(I)ccc21 experimental_system="TbTryS (Trypanosoma brucei trypanothione synthetase) (Trypanosoma brucei brucei)" measured_property="TbTryS Activity ± 2σn-1 (%)" result="98.2 ± 5.6; 3%"
molecule=[O-][n+]1onc2cc(Cl)c(Cl)cc21 experimental_system="TbTryS (Trypanosoma brucei trypanothione synthetase) (Trypanosoma brucei brucei)" measured_property="TbTryS Activity ± 2σn-1 (%)" result="88.9 ± 2.7; 3%"

====

Biological target: TbTryS (Trypanosoma brucei trypanothione synthetase) (Trypanosoma brucei brucei, UniProt Q8IEX1)
Sequence (Q8IEX1 1-627): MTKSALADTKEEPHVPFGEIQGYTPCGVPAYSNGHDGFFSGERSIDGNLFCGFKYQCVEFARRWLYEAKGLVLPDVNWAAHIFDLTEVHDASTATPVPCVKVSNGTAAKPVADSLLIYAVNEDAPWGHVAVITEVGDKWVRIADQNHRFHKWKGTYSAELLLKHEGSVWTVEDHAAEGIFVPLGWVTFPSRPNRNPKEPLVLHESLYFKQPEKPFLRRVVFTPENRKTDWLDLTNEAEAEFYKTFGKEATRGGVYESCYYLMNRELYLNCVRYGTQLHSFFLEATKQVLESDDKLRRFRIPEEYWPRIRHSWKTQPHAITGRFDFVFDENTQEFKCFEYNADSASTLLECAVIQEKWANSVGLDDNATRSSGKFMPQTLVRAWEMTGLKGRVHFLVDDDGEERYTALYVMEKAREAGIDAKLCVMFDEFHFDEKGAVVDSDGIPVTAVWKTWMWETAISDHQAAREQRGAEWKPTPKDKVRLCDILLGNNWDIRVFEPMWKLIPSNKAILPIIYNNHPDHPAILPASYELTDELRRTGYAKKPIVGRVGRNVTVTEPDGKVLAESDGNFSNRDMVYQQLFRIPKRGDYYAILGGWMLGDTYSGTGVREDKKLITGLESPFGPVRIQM
Test: biochemical
measured.property: TbTryS Activity ± 2σn-1 (%)

molecule=COc1cc2no[n+]([O-])c2cc1OC result="93.4 ± 4.5; 4%"
molecule="COc1ccc2nc(N3C(=O)C(O)=C(C(=O)c4ccc5c(c4)OCCO5)C3c3ccc(OC)c(OC)c3)sc2c1 (stereo not shown)" result="97.5 ± 3.4; 3%"
molecule=[O-][n+]1onc2cc(Br)ccc21 result="96.5 ± 6.3; 3%"
molecule=Fc1ccc(CNCCCCCCCCCCNCc2ccc(F)cc2)cc1 result="81.0 ± 7.5; 3%"
molecule=Fc1ccc(CNCCCCCCCCCCCCNCc2ccc(F)cc2)cc1 result="81.4 ± 5.6; 4 (1.39) %"
molecule=COc1cc(CNCCCNCc2ccc(O)c(OC)c2)ccc1O result="88.1 ± 4.4; 3%"
molecule=COc1cc(CNCCCCCCNCc2ccc(O)c(OC)c2)ccc1O result="91.1 ± 4.8; 3%"
molecule=COc1ccc(CNCCCCCCCCCCNCc2ccc(OC)cc2)cc1 result="69.0 ± 6.3; 3%"
molecule=Brc1ccc(CNCCCCCCCCCCNCc2ccc(Br)cc2)cc1 result="62.6 ± 3.6; 3 (1.26) %"
molecule=[O-][n+]1onc2c(Cl)cc(Cl)cc21 result="104.9 ± 5.7; 3%"

====

Biological target: LiTryS (Leishmania infantum trypanothione synthetase) (Leishmania infantum)
Experiment: biochemical
Assay type: biochemical
measured.property: LiTryS Activity ± 2σn-1 (%)

molecule=COc1cc(CNCCCCNCc2ccc(O)c(OC)c2)ccc1O measured_property="LiTryS Activity ± 2σn-1 (%)" result="101.3 ± 8.7. 4%"
molecule="O=C(C1=C(O)C(=O)N(c2nc3ccc(Cl)cc3s2)C1c1ccccc1)c1ccc2c(c1)OCCO2 (stereo not shown)" measured_property="LiTryS Activity ± 2σn-1 (%)" result="64.1 ± 2.7; 4%"
molecule="COc1ccc(C2C(C(=O)c3ccc4c(c3)OCCO4)=C(O)C(=O)N2c2nc3ccc(Cl)cc3s2)cc1OC (stereo not shown)" measured_property="LiTryS Activity ± 2σn-1 (%)" result="89.1 ± 2.8; 4%"
molecule="O=C(C1=C(O)C(=O)N(c2nc3ccc(Cl)cc3s2)C1c1ccc(F)cc1)c1ccc2c(c1)OCCO2 (stereo not shown)" measured_property="LiTryS Activity ± 2σn-1 (%)" result="63.0 ± 6.8; 7%"
